Target Of Assay: Glycoprotein 42 (Epstein-Barr virus (strain AG876))
Assay Info: EBV glycoprotein 42 binding blockers – biochemical, uHTS, fluorescence polarization, primary screen (AID 1085)
Condition Parameters: Fluorescence polarization binding assay, mP read-out; hits give high values; tested at 21.74 µM
The campaign covered roughly 220,000 compounds. About 930 (0.42%) were called active. The full list was thinned out, with actives kept by preference.
Collected inhibition values appear next to each entry.
State the answer as a number, implicitly in %.

Cc1cccc(OCCNC(=S)NC(=O)c2cccnc2)c1
-11
Cc1nc2ccccc2cc1C(=O)N/N=C/c1ccc([N+](=O)[O-])cc1
-3.69
CC(C)(C)c1ccc(/C=C/C(=O)Nc2ncccn2)cc1
-8.99

Could you now look at the following compound, please?
inhibition for O=C(CCCCCN1C(=O)c2cccc3cccc(c23)C1=O)NCc1ccco1 is -16.7

* * *

Target Of Assay: Glycoprotein 42 (Epstein-Barr virus (strain AG876)) (UniProt Q1HVG2)
Sequence (Q1HVG2 whole entry, looked up): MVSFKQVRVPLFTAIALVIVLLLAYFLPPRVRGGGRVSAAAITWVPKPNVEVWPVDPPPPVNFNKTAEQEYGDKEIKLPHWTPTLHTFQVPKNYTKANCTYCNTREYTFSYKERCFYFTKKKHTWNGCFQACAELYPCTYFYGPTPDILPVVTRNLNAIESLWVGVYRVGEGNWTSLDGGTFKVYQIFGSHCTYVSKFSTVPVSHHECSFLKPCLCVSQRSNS
Assay Info: EBV glycoprotein 42 binding blockers – biochemical, uHTS, fluorescence polarization, primary screen (AID 1085)
Condition Parameters: Fluorescence polarization binding assay, mP read-out; tested at 21.74 µM
Screen size: about 220,000 compounds; about 930 (0.42%) were called active. Rule as the data show it: active = inhibition above about 50%; inactive = the rest. The entries come from a sample that favours actives as a whole.
Hi! Could you answer with just one of these? 1 = active, 0 = inactive

See these solved cases before continuing.
Cc1cc(-c2nc(C)c(-c3nnc(SCC(=O)Nc4ccccc4)n3C)s2)no1
0
CN1CCc2nc(SC(C(=O)O)c3ccccc3)c(C#N)c(-c3cccs3)c2C1 (stereo not given)
0
COc1ccc(/C=N/n2c(C)cc(C)cc2=O)cc1
0
CCOC(=O)c1sc(=S)n(-c2cccc(OC)c2)c1N
0
COCCn1c(Cc2cccn2C)nnc1SCC(=O)Nc1nccs1
0

Would you mind telling me which call this test gave COc1ccc(C2CC(c3ccc(C)cc3)Nc3nc(N)nn32)cc1 (stereo not given) ?
0

Would you mind telling me which call this test gave O=C(N/N=C/c1ccco1)c1csc2c1CCCC2 ?
0

Would you mind telling me which call this test gave O=C(COC(=O)/C=C/c1ccc(S(=O)(=O)N2CCCCCC2)cc1)NCc1ccccc1Cl ?
0

Would you mind telling me which call this test gave FC(F)(F)c1ccc(-n2cn[nH]c2=S)cc1 ?
0

Would you mind telling me which call this test gave Cc1cccc(NC(=S)NC23CN4CN(CN(C4)C2)C3)c1 ?
0

* * *

Target Of Assay: Glycoprotein 42 (Epstein-Barr virus (strain AG876)) (UniProt Q1HVG2)
Assay Info: EBV glycoprotein 42 binding blockers – biochemical, uHTS, fluorescence polarization, primary screen (AID 1085)
Condition Parameters: Fluorescence polarization binding assay, mP read-out; hits give high values; tested at 21.74 µM
About 930 (0.42%) of roughly 220,000 compounds were called active. The entries come from a sample that favours actives as a whole.
Measured Endpoint: inhibition (%)
State the answer as a number, implicitly in %.

Known results for compounds:
CC1=CC(=C(C#N)c2nc3ccccc3s2)C=C(C)N1c1ccc(F)cc1F
176
C=CCn1c(CSc2nc3ccccc3s2)nnc1SCC(=O)NCc1ccco1
50.6
COc1cccc(C(=O)Nc2ccc(N3CCCC3)cc2)c1
-3.03
O=C(O)CS/C(=C\c1ccc(F)cc1)c1nc2ccccc2s1
-2.63
CC(=O)c1ccccc1NC(=O)CC1(CC(=O)O)CCCCC1
-14.7

inhibition for CCc1nnc(NC(=O)Cc2cccs2)s1 is 15.8

Ref: PubChem BioAssay AID1085
